- assay-system: Diacylglycerol lipase-alpha (Homo sapiens, UniProt Q9Y4D2)
- Sequence (Q9Y4D2 whole entry): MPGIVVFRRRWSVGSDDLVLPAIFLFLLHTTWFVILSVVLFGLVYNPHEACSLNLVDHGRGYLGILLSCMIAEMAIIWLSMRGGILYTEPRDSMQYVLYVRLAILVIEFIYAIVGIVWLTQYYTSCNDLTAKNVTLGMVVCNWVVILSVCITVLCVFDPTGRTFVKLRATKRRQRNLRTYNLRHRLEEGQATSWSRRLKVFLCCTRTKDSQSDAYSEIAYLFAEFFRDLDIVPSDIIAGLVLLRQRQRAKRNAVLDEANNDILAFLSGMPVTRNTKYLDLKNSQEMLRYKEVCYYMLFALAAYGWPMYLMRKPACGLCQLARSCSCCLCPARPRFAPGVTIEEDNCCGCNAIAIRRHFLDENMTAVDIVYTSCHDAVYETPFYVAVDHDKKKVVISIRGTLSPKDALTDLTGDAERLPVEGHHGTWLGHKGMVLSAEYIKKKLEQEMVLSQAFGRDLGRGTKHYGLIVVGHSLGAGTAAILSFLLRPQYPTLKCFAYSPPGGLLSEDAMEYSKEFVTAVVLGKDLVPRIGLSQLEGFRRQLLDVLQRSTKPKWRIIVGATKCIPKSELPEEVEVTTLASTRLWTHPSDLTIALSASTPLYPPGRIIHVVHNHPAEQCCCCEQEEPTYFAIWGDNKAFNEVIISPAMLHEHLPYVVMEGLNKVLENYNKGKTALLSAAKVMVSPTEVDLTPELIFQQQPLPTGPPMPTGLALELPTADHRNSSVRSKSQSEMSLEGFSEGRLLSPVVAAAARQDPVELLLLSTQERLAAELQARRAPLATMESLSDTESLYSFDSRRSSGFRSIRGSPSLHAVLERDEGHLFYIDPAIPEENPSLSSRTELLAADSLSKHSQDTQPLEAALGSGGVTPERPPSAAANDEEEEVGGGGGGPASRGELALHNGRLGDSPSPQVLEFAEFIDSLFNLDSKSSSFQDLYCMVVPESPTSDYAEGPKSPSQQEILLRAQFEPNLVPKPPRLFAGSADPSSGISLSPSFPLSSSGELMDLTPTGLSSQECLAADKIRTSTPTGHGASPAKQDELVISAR
- assay-info: Inhibition of human DAGLalpha mediated sn-1-[14C]oleoyl-2-arachidonoyl-glycerol hydrolysis to 2-AG in COS cell
The molecules listed here are annotated with their IC50.

Past entries and their recorded results:
N#CCn1nnc(Cc2ccc(-c3ccccc3)cc2)n1 :: > 10 µM
COC(=O)Cn1nnnc1CNC(=O)c1ccc(-c2ccccc2)cc1 :: > 10 µM
N#CCn1nnnc1Cc1ccc(-c2ccccc2)cc1 :: > 10 µM

## Task Provide one value: measured IC50 of N#CCn1nnc(CNC(=O)c2ccc(-c3ccccc3)cc2)n1
## Result > 10 µM
